# Tested on: L. acidophilus NCFM
# Assay Summary: RNA-seq transcriptional analysis of L. acidophilus NCFM growing on plant glycosides
# Type: cell-based, Lactobacillus acidophilus
# Reported Conditions: LBA1873 Acetate kinase, COG C
Endpoint Name: Log2 differential normalized TPM ratio compared to glucose
Keep the answer to the number alone.

Use these answered entries as a reference point.
Structure Notation	Reading
OC[C@H]1O[C@@H](O[C@H]2[C@H](O)[C@@H](O)[C@@H](O)O[C@@H]2CO)[C@H](O)[C@@H](O)[C@H]1O	1.4
O=c1ccc2cc(O[C@@H]3O[C@H](CO)[C@@H](O)[C@H](O)[C@H]3O)c(O)cc2o1	0.8
OCc1ccccc1O[C@@H]1O[C@H](CO)[C@@H](O)[C@H](O)[C@H]1O	1.2

Let us move to another entry and its Log2 differential normalized TPM ratio compared to glucose.
Sample `N#C[C@H](O[C@@H]1O[C@H](CO[C@@H]2O[C@H](CO)[C@@H](O)[C@H](O)[C@H]2O)[C@@H](O)[C@H](O)[C@H]1O)c1ccccc1` ; Log2 differential normalized TPM ratio compared to glucose observed: 4.6
